src = patent US20260138957A1

System: A. baumannii strain 5075 (AB5075)
Assay: Clarithromycin potentiation against AB5075 (CLR MIC in presence of adjuvant)
Assay type: cell-based, Acinetobacter baumannii
Details: adjuvant at 7.5 μM, AB5075
Values of Clarithromycin (CLR) MIC greater than or equal to 1 µg/mL map to Fulfilled; values below map to Not fulfilled.

compoundSmiles	label
Nc1nc(-c2cc(F)cc(NC(=O)Nc3ccc(-c4c[nH]c(N)n4)c(F)c3)c2)c[nH]1	Not fulfilled
Nc1nc(-c2ccc(NC(=O)Nc3cccc(-c4c[nH]c(N)n4)c3F)cc2F)c[nH]1	Not fulfilled
Nc1nc(-c2cc(F)cc(NC(=O)Nc3cc(F)cc(-c4c[nH]c(N)n4)c3)c2)c[nH]1	Not fulfilled
Nc1nc(-c2ccc(NC(=O)Nc3ccc(-c4c[nH]c(N)n4)c(F)c3)cc2)c[nH]1	Fulfilled
Nc1nc(-c2ccc(NC(=O)Nc3ccc(-c4c[nH]c(N)n4)c(F)c3)cc2F)c[nH]1	Not fulfilled
Nc1nc(-c2ccc(NC(=O)Nc3ccc(-c4c[nH]c(N)n4)cc3)cc2)c[nH]1	Fulfilled
Nc1nc(-c2cccc(NC(=O)Nc3cccc(-c4c[nH]c(N)n4)c3F)c2F)c[nH]1	Fulfilled
